targetUnderTest: T1, hOrai1-mOrai1 ECL2 (…) protein (human/mouse chimera, UniProt Q96D31 1-301)
T1 construct: also called Ch
T1 sequence (Q96D31 other isoform, or with tags, fused parts or gaps): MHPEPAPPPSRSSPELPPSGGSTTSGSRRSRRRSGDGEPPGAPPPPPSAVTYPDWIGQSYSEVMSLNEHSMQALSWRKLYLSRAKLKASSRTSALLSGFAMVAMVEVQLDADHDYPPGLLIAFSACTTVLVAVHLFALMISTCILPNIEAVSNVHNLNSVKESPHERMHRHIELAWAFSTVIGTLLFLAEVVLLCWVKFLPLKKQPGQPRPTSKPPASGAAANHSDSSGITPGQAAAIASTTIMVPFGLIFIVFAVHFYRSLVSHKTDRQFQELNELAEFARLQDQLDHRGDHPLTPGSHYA
test: FACS, 293EBNA, RFI-POC grade
Set-up: concentration or dose not given beside the values
measuredProperty: percent of control (POC) of FACS Geo Mean

Q: I'd like to know its percent of control (POC) of FACS Geo Mean. The binder in question is mAb 5F2.1 (antibody, human IgG2, lambda, V domains shown, fully human IgG2 lambda, Campaign 2) VH: QVQLVQSGAEVKKPGASVKVSCKASGYTFTDYYMNWVRQAPGQGLEWMGWINPNSGGTHYAQKFQGRVTMTRDTSISTAYMELSRLRSDDTAVYYCAREYGGYSDWFDPWGQGTLVTVSS VL: QSVLTQPPSVSGAPGQRVTISCTGSRSNIGAGYDVHWYQQLPRTAPKLLIYDNSNRPSGVPDRFSGSKSGSSASLAITGLQAEDEADYYCQSYDNSLSDSVLIGGGTKLTVLG
Result: 40 to 100%
